ASSAY COMMENT: small-molecule binders of probe aLefty1, primary screen, biochemical, small-molecule microarray, 635/667 nm fluorescence (AID 1153);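 further: score merges spot fluorescence with signal-to-noise ratio from the scanned slide images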
CONDITIONS: higher = more signal
READOUT KIND: composite z-score
// no unit string in output, number only

Measured composite z-score, "COCCOC(=O)N1C(=O)[C@@]2(c3cc(C#CCC(C(=O)OC)C(=O)OC)ccc31)[C@H](c1ccccc1OCCO)N1[C@H](c3ccccc3)[C@H](c3ccccc3)OC(=O)[C@H]1[C@@H]2C(=O)NC[C@H](O)c1ccccc1" : 0.557

Looking up "CC(C)[Si]1(C(C)C)O[C@@H](c2ccccc2)c2cc(-c3ccc(-c4ccc(Cl)c(Cl)c4)o3)nc(-c3ccccc3)c21" , I found its composite z-score recorded as -0.0611

Lookup result for C=C(C)[C@@H]1CC=C(C(O)C2C=CC3C(=O)N(c4ccccc4)C(=O)C3N2Nc2ccccc2)CC1 (stereo partly drawn) ; measured composite z-score: 1.33
